Listing: Viability (%) at different lipid concentrations, mean of selected compounds
Test system: HepG2 cell line
Experiment: In vitro toxicity study on HepG2 cell line (resazurin, viability and IC50)
Format: cell-based, human
Conditions: HepG2 cells, 800 μM lipid, 48 h post-treatment, resazurin, relative to ethanol vehicle controls
Protocol: The synthesized lipids were tested in term of in vitro transfection efficacy and toxicity on HeLa cells. In order to perform the mentioned biological tests, appropriate LNPs had to be formulated from the synthesized lipids. The formulation technique was different in Method A and B. The particle size, polydispersity index (PDI) and zeta potential of resulting LNPs were determined by means of Dynamic Light Scattering technique (DLS). […]
outcomeMeasure: Viability (%) at different lipid concentrations, mean

compound="CCCCC/C=C\\C/C=C\\CCCCCCCCOC(CC[C@@H](C)C1CCC2C3CCC4C[C@H](OC)CC[C@]4(C)C3CC[C@@]21C)O[Si](C)(C)OCCCCCCN(CCO)CCO (stereo partly drawn)" resultnumber=−0.7
compound="CCCCCCCC/C=C\\CCCCCCCCOC(CC[C@@H](C)C1CCC2C3CCC4C[C@H](OC)CC[C@]4(C)C3CC[C@@]21C)O[Si](C)(C)OCCCCCCN(CCO)CCO (stereo partly drawn)" resultnumber=98.6
compound="CCCCCCCCO[Si](C)(C)O[Si](C)(C)OC(CCCCCCC)OCCCCCCN(C)CCN(C)CCN(C)CCCCCCOC(CCCCCCC)O[Si](C)(C)O[Si](C)(C)OCCCCCCCC (stereo not drawn)" resultnumber=−1.25
compound="CCCCC/C=C\\C/C=C\\CCCCCCCCOC(CCCCCCC/C=C\\C/C=C\\CCCCC)O[Si](C)(C)OCCCCCCN(C)Cc1cn(C2[C@H](O)O[C@H](CO)[C@@H](O)[C@@H]2O)nn1 (stereo partly drawn)" resultnumber=12.3
compound="CCCCCCCC/C=C\\CCCCCCCCOC(=O)C(C)(C)CC(OCCCCCCCC/C=C\\CCCCCCCC)O[Si](C)(C)OCCCCCCN(C)CCO (stereo not drawn)" resultnumber=72.2
compound="CCCCCCCC/C=C\\CCCCCCCC(OCCCCCCCCCCCCCCC(C)C)O[Si](C)(C)OCCCCCCN(CCO)CCO (stereo not drawn)" resultnumber=70.0
compound="CCCCC/C=C\\C/C=C\\CCCCCCCCOC(CCCCCCC/C=C\\C/C=C\\CCCCC)O[Si](C)(C)OCCCCCCN(CCCCO)CCCCO (stereo not drawn)" resultnumber=−0.7
compound="CCCCC/C=C\\C/C=C\\CCCCCCCCOC(CCCCCCC/C=C\\C/C=C\\CCCCC)O[Si](C)(C)OCCCCCCN1CCCC1CO (stereo not drawn)" resultnumber=74.5
compound="C#CCN(C)CCCCCCO[Si](C)(C)OC(CC(C)(C)C(=O)OCCCCCCCC/C=C\\CCCCCCCC)OCCCCCCCC/C=C\\CCCCCCCC (stereo not drawn)" resultnumber=0.7
compound="CCCCC/C=C\\C/C=C\\CCCCCCCCOC(CCCCCCC/C=C\\C/C=C\\CCCCC)O[Si](C)(C)OCCCCCCN(CCCO)CCCO (stereo not drawn)" resultnumber=−1.4
compound="CCCCCCCCCCCCCCCCOC(CCCCCCCCCCCCCCC)O[Si](C)(C)OCCCCCCN(CCO)CCO (stereo not drawn)" resultnumber=103.0
compound="CCCCCCCC/C=C\\CCCCCCCCOC(=O)C(C)(C)CC(OCCCCCCCC/C=C\\CCCCCCCC)O[Si](C)(C)OCCCCCCN(CCO)CCN(CCO)CCCCCCO[Si](C)(C)OC(CC(C)(C)C(=O)OCCCCCCCC/C=C\\CCCCCCCC)OCCCCCCCC/C=C\\CCCCCCCC (stereo not drawn)" resultnumber=5.80

###

Experiment: LNP size, PDI and zeta potential by Dynamic Light Scattering (Method A)
Assay type: physicochemical
Settings: LNP formulated with the lipid, DLS
outcomeMeasure: Size (nm)

compound="CCCCCCCC/C=C\\CCCCCCCCOC(=O)C(C)(C)CC(OCCCCCCCC/C=C\\CCCCCCCC)O[Si](C)(C)OCCCCCCN(C)CC(O)CO (stereo not drawn) [Example 92]" outcomemeasure="Size (nm)" result="85.81 nm"
compound="CCCCCCCC/C=C\\CCCCCCCCOC(=O)C(C)(C)CC(OCCCCCCCC/C=C\\CCCCCCCC)O[Si](C)(C)OCCCCCCN(CCCO)CCCO (stereo not drawn) [Example 88]" outcomemeasure="Size (nm)" result="86.51 nm"
compound="CCCCC/C=C\\C/C=C\\CCCCCCCCOC(CCCCCCC/C=C\\C/C=C\\CCCCC)O[Si](C)(C)OCCCCCCN(C)[C@H](CO)Cc1ccccc1 (stereo partly drawn) [Example 77]" outcomemeasure="Size (nm)" result="90.59 nm"
compound="CCCCCCCC/C=C\\CCCCCCCCOC(=O)C(C)(C)CC(OCCCCCCCC/C=C\\CCCCCCCC)O[Si](C)(C)OCCCCCCN1CCCCC1 (stereo not drawn) [Example 87]" outcomemeasure="Size (nm)" result="101.8 nm"
compound="CCCCC/C=C\\C/C=C\\CCCCCCCCOC(CCCCCN(CCO)CCO)O[Si](C)(C)OCCCCCCCC/C=C\\C/C=C\\CCCCC (stereo not drawn) [Example 39]" outcomemeasure="Size (nm)" result="170.4 nm"
compound="CCCCCCCCC(CCCCCC)C(=O)OCCCCCCN(CCCCO)CCCCCCOC(=O)C(CCCCCC)CCCCCCCC (stereo not drawn) [ALC-0315, reference compound]" outcomemeasure="Size (nm)" result="131.9 nm"

###

Listing: Viability (%) at different lipid concentrations, mean of selected molecules
Tested on: HepG2 cell line
Assay: In vitro toxicity study on HepG2 cell line (resazurin, viability and IC50)
Format: cell-based, human
Conditions: HepG2 cells, 200 μM lipid, 48 h post-treatment, resazurin, relative to ethanol vehicle controls
outcomeMeasure: Viability (%) at different lipid concentrations, mean

molecule="CCCCC/C=C\\C/C=C\\CCCCCCCCOC(CCCCCCC/C=C\\C/C=C\\CCCCC)O[Si](C)(C)OCCCCCCN1CCCCC1 (stereo not shown) [Example 57]" resultnumber=86.9
molecule="CCCCC/C=C\\C/C=C\\CCCCCCCCOC(CCCCCCC/C=C\\C/C=C\\CCCCC)O[Si](C)(C)OCCCCCCN(CCO)CCN(CCO)CCCCCCO[Si](C)(C)OC(CCCCCCC/C=C\\C/C=C\\CCCCC)OCCCCCCCC/C=C\\C/C=C\\CCCCC (stereo not shown) [Example 71]" resultnumber=72.87
molecule="CCCCCCCC/C=C\\CCCCCCCCOC(=O)C(C)(C)CC(OCCCCCCCC/C=C\\CCCCCCCC)O[Si](C)(C)OCCCCCCN(CCO)CCO (stereo not shown) [Example 84]" resultnumber=90.4
molecule="CCCCCCCC/C=C\\CCCCCCCCOC(=O)C(C)(C)CC(OCCCCCCCC/C=C\\CCCCCCCC)O[Si](C)(C)OCCCCCCN(CCCO)CCCO (stereo not shown) [Example 88]" resultnumber=57.3
molecule="CCCCC/C=C\\C/C=C\\CCCCCCCCOC(CCCCCCC/C=C\\CCCCCCCC)O[Si](C)(C)OCCCCCCN(CCO)CCO (stereo not shown) [Example 46]" resultnumber=101.8
molecule="CCCCCCCC/C=C\\CCCCCCCCOC(=O)C(C)(C)CC(OCCCCCCCC/C=C\\CCCCCCCC)O[Si](C)(C)OCCCCCCN(C)CCO (stereo not shown) [Example 93]" resultnumber=99.7
molecule="CCCCCCCC/C=C\\CCCCCCCCOC(=O)C(C)(C)CC(OCCCCCCCC/C=C\\CCCCCCCC)O[Si](C)(C)OCCCCCCN(CCCCO)CCCCO (stereo not shown) [Example 86]" resultnumber=77.2
molecule="CCCCCCCCCCCCCCCCOC(CCCCCCCCCCCCCCC)O[Si](C)(C)OCCCCCCN(CCO)CCO (stereo not shown) [Example 49]" resultnumber=118.4
molecule="CCCCCCCC/C=C\\CCCCCCCC(OCC(CCCCCCCC)SCCCCC)O[Si](C)(C)OCCCCCCN(CCO)CCO (stereo not shown) [Example 72]" resultnumber=96.6
molecule="CCCCCCCC/C=C\\CCCCCCCCOC(CCCCCCC/C=C\\CCCCCCCC)O[Si](C)(C)OCCCCCCN(CCO)CCO (stereo not shown) [Example 47]" resultnumber=116.3
molecule="C#CCN(C)CCCCCCO[Si](C)(C)OC(CC(C)(C)C(=O)OCCCCCCCC/C=C\\CCCCCCCC)OCCCCCCCC/C=C\\CCCCCCCC (stereo not shown) [Example 97]" resultnumber=99.7
molecule="CCCCCCCC/C=C\\CCCCCCCCOC(=O)C(C)(C)CCC(OCCCCCCCC/C=C\\CCCCCCCC)O[Si](C)(C)OCCCCCCN(CCO)CCO (stereo not shown) [Example 94]" resultnumber=107.9
molecule="CCCCC/C=C\\C/C=C\\CCCCCCCC(OCCCCCCCC/C=C\\CCCCCCCC)O[Si](C)(C)OCCCCCCN(CCO)CCO (stereo not shown) [Example 45]" resultnumber=107.1
